Data provenance is PubChem BioAssay (NCI).

The following compounds are shown together with reported TGI values.
Tested on: BT-549 breast
Test: NCI tumour cell line growth inhibition, 48 h

Some compounds with recorded TGI:
# input Query TGI on BT-549 breast for COc1cc(-c2c(C#N)c(N)n3c(nc4ccccc43)c2C#N)cc(Br)c1OC
# output > 100 µM

# input Query TGI on BT-549 breast for CNC1C(=O)C(C)C(O)(C(CC(C)C(O)/C=C/C=C/CNC(=O)C(C)(C)C(O)\C(C)=C/C=C\C=C\Cc2cnc(C)o2)OC)C12C(=O)OC2COC (centres undefined) (tested in a mixture with another compound)
# output > 100 µM

# input Query TGI on BT-549 breast for COc1ccc(S(=O)(=O)N(Cc2ccc3c(n2)C=CC(C)(C)O3)C2CCC2)cc1OC
# output 0.171 µM

# input Query TGI on BT-549 breast for Cc1oc2nc(N(C)C)nc(Cl)c2c1C
# output > 100 µM

# input Query TGI on BT-549 breast for C[C@]12CC[C@@H]3c4ccc(O)cc4C[C@@H](CCCCCCCCCS(=O)CCCC(F)(F)C(F)(F)F)[C@H]3[C@@H]1CC[C@@H]2O (some centres undefined)
# output > 100 µM

# input Query TGI on BT-549 breast for CC(=O)NNc1nc(C)c(C(/C=C/c2cccc([N+](=O)[O-])c2)=N/NC(=S)NN)s1
# output > 100 µM

# input Query TGI on BT-549 breast for COc1cc2c3c(n(CCCCl)c(=O)c2cc1OC)-c1ccccc1C3=O
# output > 100 µM

# input Query TGI on BT-549 breast for CO/N=C(\C(=O)Nc1cncs1)c1csc(NC(c2ccccc2)(c2ccccc2)c2ccccc2)n1
# output > 10 µM

# input Query TGI on BT-549 breast for Cc1cc(NS(=O)(=O)c2ccc(N=Nc3c(O)c(C(=O)O)cc4ccccc34)cc2)nc(C)n1
# output > 100 µM

# input Query TGI on BT-549 breast for COc1ccc(-c2cc3c(nn2)-c2ccccc2C3=O)cc1
# output > 100 µM

Continuing:
# input Query TGI on BT-549 breast for O=C1NC(Nc2cccc(Cl)c2)=N/C1=C\c1ccc(Cl)c(Cl)c1
# output 25.1 µM

# input Query TGI on BT-549 breast for COc1ccc(C2CC(=O)c3c(OC)cc(OC)cc3O2)cc1 (centres undefined)
# output > 100 µM

# input Query TGI on BT-549 breast for O=C(O)C1C(C(=O)O)C(C(=O)O)C1C(=O)O (centres undefined)
# output > 100 µM

* * *

Tested on: PC-3 prostate
Assay: NCI tumour cell line growth inhibition, 48 h
assay readout: TGI (µM)
Give just the numeric value; µM need not be written.

Some molecules with recorded TGI:
# input Can you share its TGI? I mean this molecule: COc1cc([C@@H]2c3cc4c(cc3C(O[C@@H]3O[C@@H]5CO[C@@H](c6cccs6)OC5[C@H](O)[C@H]3O)C3COC(=O)[C@@H]32)OCO4)cc(OC)c1O (stereo not given in full)
# output 32.9

# input Can you share its TGI? I mean this molecule: CC(=O)[O][Hg][c]1c(C)c(C)c(C)c(C)c1C
# output 5.68

# next molecule below
# input Can you share its TGI? I mean this molecule: C/C(=N\NC(=S)N1CC2CCC(CC2)C1)c1ccncn1
# output 15
